System: Human immunodeficiency virus 1
METHOD: Antiviral activity against HIV1 infected in human 293T cells expressing VSV-G assessed as inhibition of viral p24 production at 10 uM after 48 hrs by ELISA
Format: functional, organism-based
Active and inactive are the calls of the source. No cut-off for these calls is given here.
PROPERTY_MEASURED: inhibition

C=C[C@H]1[C@H](O[C@@H]2O[C@H](CO)[C@@H](O)[C@H](O)[C@H]2O)OC=C(C(=O)O)[C@H]1/C=C/c1ccc[n+]([C@H](Cc2ccccc2)C(=O)[O-])c1
inactive
COC(=O)C1=CO[C@@H](O[C@@H]2O[C@H](CO)[C@@H](O)[C@H](O)[C@H]2O)[C@H]2[C@@H]1CC(=O)[C@@H]2C
inactive
O=C(O)/C=C/c1ccc(O[C@@H]2O[C@H](CO)[C@@H](O)[C@H](O)[C@H]2O)c(O)c1
inactive

----------
Tested on: A549
METHOD: Cytotoxicity against human A549 cells at 10 uM after 96 hrs by MTT assay
Format: functional, cell-based
Activity calls are given as the source filed them. No cut-off for these calls is given here.
PROPERTY_MEASURED: Activity

COC[C@H]1O[C@@H](n2cnc3c(N)ncnc32)[C@H](O)[C@@H]1O
inactive
C=C[C@H]1[C@H](O[C@@H]2O[C@H](CO)[C@@H](O)[C@H](O)[C@H]2O)OC=C(C(=O)[O-])[C@H]1/C=C/c1cc(C(=O)O)c[n+]([C@H](C(=O)O)[C@@H](C)CC)c1
inactive
COc1cc(/C=C/CO)cc(OC)c1O[C@@H]1O[C@H](CO)[C@@H](O)[C@H](O)[C@H]1O
inactive
O=C(O)/C=C/c1ccc(O)c(O)c1
inactive

----------
System: HCT-8
METHOD: Cytotoxicity against human HCT8 cells at 10 uM after 96 hrs by MTT assay
Type: functional, cell-based
Activity calls are given as the source filed them. The calls are words filed in the database; no cut-off is given here.
PROPERTY_MEASURED: Activity

For orientation, consider the following solved cases.
C=C[C@H]1[C@H](O[C@@H]2O[C@H](CO)[C@@H](O)[C@H](O)[C@H]2O)OC=C(C(=O)[O-])[C@H]1/C=C\c1ccc[n+]([C@H](Cc2ccccc2)C(=O)O)c1
inactive
C[C@@H]1C(=O)O[C@H]2[C@H](O)[C@@]34[C@H]5C[C@@H](C(C)(C)C)[C@]36[C@@H](OC(=O)[C@@H]6O)O[C@@]4(C(=O)O5)[C@@]12O [GINKOLIDE B]
inactive
O=C(/C=C/c1ccc(O)c(O)c1)O[C@H]1[C@H](O)C[C@@](O)(C(=O)O)C[C@H]1O
inactive
COC(=O)C1=CO[C@@H](O[C@@H]2O[C@H](CO)[C@@H](O)[C@H](O)[C@H]2O)[C@H]2[C@@H]1CC(=O)[C@@H]2C
inactive
O=C(O)/C=C/c1ccc(O[C@@H]2O[C@H](CO)[C@@H](O)[C@H](O)[C@H]2O)c(O)c1
inactive
Nc1ncnc2c1ncn2[C@@H]1O[C@H](CO)[C@@H](O)[C@H]1O
inactive
C=C[C@H]1[C@H](O[C@@H]2O[C@H](CO)[C@@H](O)[C@H](O)[C@H]2O)OC=C(C(=O)[O-])[C@H]1/C=C/c1cc(C(=O)O)c[n+]([C@@H](CC(C)C)C(=O)O)c1
inactive
O=C(/C=C/c1ccc(O)c(O)c1)O[C@@H]1C[C@](O)(C(=O)O)C[C@@H](O)[C@H]1O
inactive

Ask: Suppose we examine the molecule COc1cc(/C=C/CO)cc(OC)c1O[C@@H]1O[C@H](CO)[C@@H](O)[C@H](O)[C@H]1O ; what Activity value has been reported?
Result: inactive

Ask: Suppose we examine the molecule C=C[C@H]1[C@H](O[C@@H]2O[C@H](CO)[C@@H](O)[C@H](O)[C@H]2O)OC=C(C(=O)OC)[C@H]1/C=C/c1ccc[n+]([C@@H](C)C(=O)[O-])c1 ; what Activity value has been reported?
Result: inactive

Sourced from ChEMBL document CHEMBL3091360
